- assay-system: Human immunodeficiency virus type 1 integrase (Human immunodeficiency virus 1)
- experimental-details: Inhibition of HIV1 integrase strand transfer activity
pIC50: −log10 of the molar value.
As shown below, each of these molecules has a reported pIC50 value.

{"columns": ["molecule", "pIC50"],
 "data": [
  ["C=C(NNC(=O)C1CC1c1ccccc1)c1cccc(NC(=O)C2CCCCC2C(=O)O)c1 (stereo not drawn)", 4.31],
  ["Cc1n[nH]c(O)c1C(c1ccc(-c2ccc(Cl)c(C(=O)O)c2)o1)c1c(O)n[nH]c1C", 4.24],
  ["Cc1[nH]nc(O)c1CC(=O)N/N=C/c1ccccc1OCC(=O)O", 4.27]
]}

---

- assay-system: Human immunodeficiency virus type 1 integrase (Human immunodeficiency virus 1)
- experimental-details: Inhibition of HIV1 integrase strand transfer activity
Measured IC50 accompanies every entry in the list below.
property-measured: IC50 (µM)

{"columns": ["molecule", "property-measured", "modifier", "numeric-value"],
 "data": [
  ["O=C(O)CCC(=O)Nc1ccccc1-c1ccccc1NC(=O)CCC(=O)O", "IC50", ">", 333],
  ["C=C(NNC(=O)Cc1ccc(O)cc1)c1ccc(NC(=O)CCC(=O)O)cc1", "IC50", "=", 114],
  ["C=C(NNC(=O)C(C)Oc1ccccc1Cl)c1cccc(NC(=O)C2CCCCC2C(=O)O)c1 (stereo not given)", "IC50", ">", 333],
  ["C=C(NNC(=O)c1c[nH]c2ccccc12)c1cccc(NC(=O)CCCC(=O)O)c1", "IC50", "=", 70],
  ["O=C(O)COc1ccccc1/C=N/NC(=O)CSc1nc2ccccc2[nH]1", "IC50", "=", 120]
]}

---

- assay-system: Human immunodeficiency virus type 1 integrase (Human immunodeficiency virus 1, UniProt Q7ZJM1)
- Sequence (Q7ZJM1 whole entry): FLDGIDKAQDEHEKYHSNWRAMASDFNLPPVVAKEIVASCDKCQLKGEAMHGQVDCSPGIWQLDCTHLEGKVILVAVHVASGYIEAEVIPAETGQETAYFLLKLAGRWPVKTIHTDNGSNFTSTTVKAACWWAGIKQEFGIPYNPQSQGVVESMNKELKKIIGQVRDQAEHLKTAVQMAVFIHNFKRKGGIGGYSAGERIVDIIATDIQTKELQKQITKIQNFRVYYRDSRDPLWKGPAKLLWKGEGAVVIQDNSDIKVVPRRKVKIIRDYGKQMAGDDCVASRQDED
- experimental-details: Inhibition of HIV1 integrase by BioVeris assay
Let's look at some compounds and their measured IC50.
property-measured: IC50

{"columns": ["compound", "result"],
 "data": [
  ["O=C(O)COc1ccccc1/C=N/NC(=O)CSc1nc2ccccc2[nH]1", "780 µM"],
  ["C=C(NNC(=O)C1CC1c1ccccc1)c1cccc(NC(=O)C2CCCCC2C(=O)O)c1 (stereo not given)", "113 µM"],
  ["C=C(NNC(=O)Cc1ccc(O)cc1)c1ccc(NC(=O)CCC(=O)O)cc1", "292 µM"],
  ["Cc1[nH]nc(O)c1CC(=O)N/N=C/c1ccccc1OCC(=O)O", "580 µM"],
  ["C=C(NNC(=O)C(C)Oc1ccccc1Cl)c1cccc(NC(=O)C2CCCCC2C(=O)O)c1 (stereo not given)", "182 µM"]
]}

---

- assay-system: Human immunodeficiency virus type 1 integrase (Human immunodeficiency virus 1)
- experimental-details: Inhibition of HIV1 integrase 3' processing activity
property-measured: IC50 (µM)

{"columns": ["compound", "modifier", "numeric-value"],
 "data": [
  ["O=C(O)COc1ccccc1/C=N/NC(=O)CSc1nc2ccccc2[nH]1", "=", 155],
  ["Cc1[nH]nc(O)c1CC(=O)N/N=C/c1ccccc1OCC(=O)O", "=", 121],
  ["C=C(NNC(=O)c1c[nH]c2ccccc12)c1cccc(NC(=O)CCCC(=O)O)c1", "=", 120],
  ["C=C(NNC(=O)C1CC1c1ccccc1)c1cccc(NC(=O)C2CCCCC2C(=O)O)c1 (centres undefined)", "=", 65],
  ["Cc1n[nH]c(O)c1C(c1ccc(-c2ccc(Cl)c(C(=O)O)c2)o1)c1c(O)n[nH]c1C", "=", 87],
  ["C=C(NNC(=O)C(C)Oc1ccccc1Cl)c1cccc(NC(=O)C2CCCCC2C(=O)O)c1 (centres undefined)", ">", 333],
  ["O=C(O)CCC(=O)Nc1ccccc1-c1ccccc1NC(=O)CCC(=O)O", ">", 333],
  ["CC(C)n1nc(C(=O)NN/C(=C/CC(=O)O)c2ccc(Br)cc2)c2ccccc2c1=O", "=", 295],
  ["C=C(NNC(=O)Cc1ccc(O)cc1)c1ccc(NC(=O)CCC(=O)O)cc1", "=", 204]
]}
